recorded_metric: melting point

CC(=Cc1cccc(O)c1)[N+](=O)[O-]: 96 to 98 °C
O=C(O)C(Cl)C(=O)CCl (configuration not stated): 53 to 54 °C
CCCc1c(OCc2ccc(C=CC(=O)O)cc2OC)ccc(C(C)=O)c1O: 144 to 146 °C
OC(CCn1ccnc1)c1ccc(Br)cc1 (configuration not stated): 104 to 110 °C
O=C1Nc2ccccc2C1C(=O)c1ccoc1 (configuration not stated): 185 to 186 °C

Returns the measured melting point for the input compound. Input: `Cc1cc(-c2ccccc2)n2nccc2n1`
70 to 71 °C

Given the compound `O=C(Nc1ccc([N+](=O)[O-])cc1Cl)c1ccc(C(=O)Nc2ccc([N+](=O)[O-])cc2Cl)cc1` , what is its reported melting point?
339 °C

melting point for `CC(=O)Oc1c(C)c(C=O)nc2ccccc12` ?
132 to 133 °C
